- tested.system: T1, EGFRvIII on F98npEGFRvIII cells (rat glioma F98 transfected with nonphosphorylated EGFRvIII)
- T1 construct: whole, on cells; also called F98-EGFRvIII
- procedure.details: flow cytometry, antibodies added at 2 µg/ml, F98-npEGFRvIII cells
Measured Median : PE-A, listed per entry for reference.
Field format: numeric only.

# binder, measure.name, observed.result
measured = [
    ("monoclonal antibody 40H3 (antibody, V domains shown, also called ma40H3 GS; 40H3 (full length antibody)) VH: QVQLKQSGPGLVQPSQSLSITCTVSGFSLTNYGIHWLRQSPGKGLEWLGMMWRGGGTDYNAAFISRLTITKDTSKSQVFFRMNNLQTNDTAIYYCARKGVGMGLGYWGQGTSVTVSS VL: DIQMTQSPASQSASLGESVTITCLASQTIGTWVAWYQQKPGRSPQLLIYGATNLADGVPSRFSGSGSGTKFSFKISSLQAEDFVSYYCQQLYSNPYTFGGGTKLEIK", "Median : PE-A", 1120),
]

Input: Please report the recorded Median : PE-A for monoclonal antibody 11E11 (antibody, V domains shown) VH: QVQLKQSGPSLVQPSQSLSITCTVSGFSLTNYGVHWIRQSPGKGLEWLGVKWRGGRTDYNAAFMSRLSITRDNSRSQVFFKMNSLQTDDTAIYYCAKNGPFGNFAGYWGQGTLVTVSA VL: DIVMSQSPSSLAVSVGEKVSLTCKSSQSLLDNQKHYLAWYQQKPGQSPKLLIYWASTRESGVPDRFTGSGSGTEFTLTISSVKAEDLAVYYCQQFYNYPYTFGGGTKLEIK .
Output: 1440

The values you see were collected from patent US20260193363A1.
